System: recombinant human MAO-B (monoamine oxidase-B) (Homo sapiens, UniProt P27338)
Construct: purchased Sigma-Aldrich
Sequence (P27338 1-520): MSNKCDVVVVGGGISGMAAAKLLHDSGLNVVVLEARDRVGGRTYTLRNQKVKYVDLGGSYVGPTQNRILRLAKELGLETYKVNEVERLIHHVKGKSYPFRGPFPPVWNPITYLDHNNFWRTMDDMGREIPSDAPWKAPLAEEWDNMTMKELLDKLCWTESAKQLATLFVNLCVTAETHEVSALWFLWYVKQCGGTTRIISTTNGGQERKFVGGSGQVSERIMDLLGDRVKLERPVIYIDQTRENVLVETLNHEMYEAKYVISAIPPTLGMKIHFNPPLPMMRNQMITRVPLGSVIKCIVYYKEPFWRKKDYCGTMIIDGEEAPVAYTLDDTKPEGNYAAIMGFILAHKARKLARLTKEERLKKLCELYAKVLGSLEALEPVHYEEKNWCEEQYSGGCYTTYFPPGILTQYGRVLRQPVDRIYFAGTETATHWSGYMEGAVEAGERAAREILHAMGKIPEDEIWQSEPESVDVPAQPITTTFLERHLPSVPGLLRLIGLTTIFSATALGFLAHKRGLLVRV
Experiment notes: Activity on recombinant human MAO-B, method similar to the VAP-1 assay
Type: biochemical
Condition context: substrate 1 mM benzylamine; read-out: Inhibitory Activity (IC50, nM) MAO-B
Where a name gives a salt, the structure may show the parent alone.
Experimental endpoint: log10 of IC50 (log10 of the value in nM)

| Molecule | log10 of IC50 |
| --- | --- |
| CCn1cc(-c2ccc3sc(Cn4cnn(C/C(=C/F)CN)c4=O)cc3c2)cn1 | 3.34 |
| NC/C(=C\F)Cn1ncn(Cc2ccc(-c3ccc(F)c(C(F)(F)F)c3)s2)c1=O [Example 15, hydrochloride] | 0.70 |
| CCn1cc(-c2ccc(CCn3cnn(C/C(=C/F)CN)c3=O)s2)cn1 | 4.58 |
| CN(C)c1ncc(-c2ccc(Cn3cnn(C/C(=C/F)CN)c3=O)s2)cc1F | 3.30 |
| NC/C(=C\F)Cn1ncn(Cc2ccc(-c3cc4c(cc3F)NC(=O)CC4)s2)c1=O | 3.59 |
| NC/C(=C\F)Cn1ncn(Cc2ccc(/C=C/c3cccc(F)c3)s2)c1=O [Example 118, hydrochloride] | 1.76 |
| NC/C(=C/F)Cn1ncn(Cc2ccc(-c3ccc(N)cc3)s2)c1=O [Example 3, hydrochloride] | 1.32 |
| Cc1cc(-c2ccc(Cn3cnn(C/C(=C/F)CN)c3=O)s2)cnc1N1CCOCC1 | 3.59 |
| NC/C(=C\F)Cn1ncn(Cc2ccc(-c3ccncc3)s2)c1=O | 1.71 |
| NC/C(=C\F)Cn1ncn(Cc2ccc(-c3cnc4c(c3)CCCN4)s2)c1=O | 3.77 |
| NC/C(=C\F)Cn1ncn(Cc2ccc(C3=CCNCC3)s2)c1=O | 3.74 |

* * *

System: recombinant human MAO-B (monoamine oxidase-B) (Homo sapiens)
Construct: purchased Sigma-Aldrich
Experiment notes: Activity on recombinant human MAO-B, method similar to the VAP-1 assay
Format: biochemical
Condition context: substrate 1 mM benzylamine; read-out: Inhibitory Activity (IC50, nM) MAO-B
Where a name gives a salt, the structure may show the parent alone.

| Molecule | IC50 |
| --- | --- |
| NC/C(=C\F)Cn1ncn(Cc2ccc(-c3ccc(S(=O)(=O)N4CCOCC4)cc3)s2)c1=O [Example 29, hydrochloride] | > 10000 nM |
| NC/C(=C\F)Cn1ncn(Cc2ccc(-c3ccc4oc(=O)[nH]c4c3)s2)c1=O [Example 72, hydrochloride] | < 10 nM |
| CN1CC=C(c2ccc(Cn3cnn(C/C(=C/F)CN)c3=O)s2)CC1 [Example 58, hydrochloride] | > 10000 nM |
| NC/C(=C\F)Cn1ncn(CCc2cccs2)c1=O | > 10000 nM |
| NC/C(=C\F)Cn1ncn(Cc2ccc(-c3ccc4c(c3)OCC(=O)N4)s2)c1=O [Example 84, hydrochloride] | > 10000 nM |
| NC/C(=C\F)Cn1ncn(Cc2ccc(-c3ccc(N4CCNCC4)nc3)s2)c1=O | > 100000 nM |
| NC/C(=C\F)Cn1ncn(Cc2ccc(-c3ccc4c(c3)C(=O)NCC4)s2)c1=O [Example 74, hydrochloride] | > 10000 nM |
